Measured inhibition at 1 µM accompanies every entry in the list below.
target: human recombinant serotonin (5-Hydroxytryptamine) 5-HT2A receptor (Homo sapiens); construct: expressed in transfected cells; host or cells: CHO-K1 cells; experiment: Serotonin 5-HT2A radioligand binding ([3H]Ketanserin); conditions: 1 h; read-out: Percent Inhibition of ligand binding Serotonin (1 μM ligand concentration) 5-HT2A
Kindly provide the numeric value in % only, without the unit symbol.

[[record]]
molecule = "C/C(=C/n1c2c(c3cc(Cl)ccc31)CCN(C)C2C)c1ccccc1F (stereo not shown) [Compound 167]"
assay_target = "human recombinant serotonin (5-Hydroxytryptamine) 5-HT2A receptor (Homo sapiens)"
readout_units = "%"
measured = 88


**Q:** Field request: inhibition at 1 µM | item: CN1CCc2c(n(CC(=O)N3CCCCC3)c3ccc(Cl)cc23)C1 [Compound 58]
**A:** -10

**Q:** Param item = C/C(=C\n1c2c(c3cc(Cl)ccc31)CCN(C)C2C)c1ccc(Cl)c(Cl)c1 (stereo not shown) [Compound 115] ; retrieve measured inhibition at 1 µM.
**A:** 85

**Q:** Fill blank: measured inhibition at 1 µM of the molecule C/C(=C\n1c2c(c3cc(Cl)ccc31)CCN(C)C2)c1ccc(F)c(F)c1 [Compound 110] is ____.
**A:** 93

* * *

biological target: human recombinant serotonin (5-Hydroxytryptamine) 5-HT2A receptor (Homo sapiens); construct: expressed in transfected cells; host or cells: CHO-K1 cells; test: Serotonin 5-HT2A radioligand binding ([3H]Ketanserin); details: compound concentration 0.1 μM; read-out: Percentage inhibition of ligand binding to 5-HT2A receptor
observed_property: inhibition at 0.1 µM (%)
Enter your answer as a number in %; do not include the unit.

Examples with their reported inhibition at 0.1 µM follow.
[[record]]
molecule = "C/C(=C\\n1c2c(c3cc(Cl)ccc31)CCN(C)C2)c1ccc(F)cc1"
measured = 64

[[record]]
molecule = "C/C(=C\\n1c2c(c3cc(C)ccc31)CCN(C)C2C)c1ccccc1F (stereo not shown)"
measured = 74

[[record]]
molecule = "C/C(=C\\n1c2c(c3cc(C)ccc31)CCN(C)C2)c1ccc(F)cc1"
measured = 79


For the next question, use this molecule.
**Q:** Given Cc1ccc2c(c1)c1c(n2/C=C/c2ccccc2)CN(C)CC1 , state its recorded inhibition at 0.1 µM.
**A:** 65

* * *

target: human recombinant serotonin (5-Hydroxytryptamine) 5-HT7 receptor (Homo sapiens, UniProt P34969); construct: expressed in transfected cells; host or cells: CHO cells; test: Serotonin 5-HT7 radioligand binding ([3H]LSD); conditions: 2 h; read-out: Percent Inhibition of ligand binding Serotonin (1 μM ligand concentration) 5-HT7
Sequence (P34969 whole entry): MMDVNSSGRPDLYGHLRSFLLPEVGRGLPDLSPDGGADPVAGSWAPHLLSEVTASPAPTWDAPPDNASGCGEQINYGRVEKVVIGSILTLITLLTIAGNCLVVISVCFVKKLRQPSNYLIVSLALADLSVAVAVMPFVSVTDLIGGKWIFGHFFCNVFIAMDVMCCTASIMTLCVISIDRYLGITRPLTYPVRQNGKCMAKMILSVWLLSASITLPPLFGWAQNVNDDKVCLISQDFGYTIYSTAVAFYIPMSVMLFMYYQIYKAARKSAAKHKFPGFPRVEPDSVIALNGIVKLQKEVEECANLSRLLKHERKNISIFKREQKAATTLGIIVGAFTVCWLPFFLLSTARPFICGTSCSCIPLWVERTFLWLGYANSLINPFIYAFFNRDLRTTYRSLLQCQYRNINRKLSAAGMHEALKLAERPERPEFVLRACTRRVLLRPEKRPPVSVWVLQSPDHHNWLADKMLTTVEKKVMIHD
observed_property: inhibition at 1 µM (%)
Numeric answer only, unit % assumed.

Sample answers from the record:
[[record]]
compound = "COc1ccc(C#Cn2c3c(c4cc(Cl)ccc42)CCN(C)C3)cc1F"
observed_property = "inhibition at 1 µM"
measured = 19

[[record]]
compound = "Cc1ccc2c(c1)c1c(n2C#Cc2ccc(Cl)cc2)C(C)N(C)CC1 (stereo not drawn)"
observed_property = "inhibition at 1 µM"
measured = 1

[[record]]
compound = "CCC1c2c(c3cc(C)ccc3n2/C=C(\\C)c2ccc(Cl)c(Cl)c2)CCN1C (stereo not drawn)"
observed_property = "inhibition at 1 µM"
measured = 57


**Q:** Which inhibition at 1 µM is reported for this compound? Cc1ccc(CCn2c3c(c4cc(Cl)ccc42)CCN(C)C3C)cn1 (stereo not drawn)
**A:** 82

**Q:** Would you kindly share the measured inhibition at 1 µM for C/C(=C\n1c2c(c3cc(C)ccc31)CCN(C)C2C)c1ccccc1F (stereo not drawn) ?
**A:** 92

**Q:** Suppose we examine the compound C/C(=C\n1c2c(c3cc(Cl)ccc31)CCN(C)C2C)c1ccc(F)c(F)c1 (stereo not drawn) ; what inhibition at 1 µM value has been reported?
**A:** 78

**Q:** inhibition at 1 µM for CCC1c2c(c3cc(C)ccc3n2C(=O)Cc2ccc(F)cc2)CCN1C (stereo not drawn) ?
**A:** 49

**Q:** Data request, read-out inhibition at 1 µM, for C/C(=C\n1c2c(c3cc(C)ccc31)CCN(C)C2c1ccccc1)c1ccc(Cl)cc1 (stereo not drawn)
**A:** 8

* * *

# Lookup of reported inhibition at 1 µM keyed by entry
target: human recombinant adrenergic α2A receptor (Homo sapiens, UniProt P08913); construct: expressed in transfected cells; host or cells: insect Sf9 cells; assay: Adrenergic α2A radioligand binding ([3H]MK-912); conditions: compound concentration 1 μM; read-out: Percentage inhibition of ligand binding to Adrenergic α2A receptor
Sequence (P08913 whole entry): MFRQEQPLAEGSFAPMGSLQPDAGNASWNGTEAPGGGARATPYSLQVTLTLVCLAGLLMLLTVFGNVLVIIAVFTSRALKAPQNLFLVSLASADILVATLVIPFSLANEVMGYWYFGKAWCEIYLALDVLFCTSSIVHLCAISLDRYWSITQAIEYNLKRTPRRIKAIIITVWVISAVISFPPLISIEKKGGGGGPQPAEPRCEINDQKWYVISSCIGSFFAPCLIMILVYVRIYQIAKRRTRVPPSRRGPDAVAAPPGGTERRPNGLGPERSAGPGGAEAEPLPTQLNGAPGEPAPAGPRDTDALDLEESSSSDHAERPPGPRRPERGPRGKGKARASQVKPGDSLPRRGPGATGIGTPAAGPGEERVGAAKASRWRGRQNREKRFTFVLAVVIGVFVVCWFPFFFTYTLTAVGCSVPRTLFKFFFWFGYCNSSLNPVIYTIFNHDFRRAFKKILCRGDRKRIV

[[record]]
compound = "C/C(=C\\n1c2c(c3cc(Cl)ccc31)CCN(C)C2)c1ccc(F)cc1 [Compound 90]"
measured = "88%"

[[record]]
compound = "C/C(=C\\n1c2c(c3cc(C)ccc31)CCN(C)C2)c1ccc(F)cc1 [Compound 91]"
measured = "95%"

[[record]]
compound = "Cc1ccc2c(c1)c1c(n2/C=C/c2ccccc2)CN(C)CC1 [Compound 92]"
measured = "96%"


**Q:** What inhibition at 1 µM appears in the records for this compound with human recombinant adrenergic α2A receptor (Homo sapiens, UniProt P08913)? C/C(=C\n1c2c(c3cc(C)ccc31)CCN(C)C2C)c1ccccc1F (stereo not shown) [Compound 166]
**A:** 95%

* * *

inhibition at 1 µM listing for selected compounds.
biological target: human recombinant dopamine D2L receptor (Homo sapiens, UniProt P14416); construct: expressed in transfected cells; host or cells: CHO cells; test: Dopamine D2L radioligand binding ([3H]Spiperone); conditions: 2 h, 1 μM ligand conc.; read-out: Percent Inhibition of ligand binding Dopamine (1 μM ligand conc.) D2L
Sequence (P14416 whole entry): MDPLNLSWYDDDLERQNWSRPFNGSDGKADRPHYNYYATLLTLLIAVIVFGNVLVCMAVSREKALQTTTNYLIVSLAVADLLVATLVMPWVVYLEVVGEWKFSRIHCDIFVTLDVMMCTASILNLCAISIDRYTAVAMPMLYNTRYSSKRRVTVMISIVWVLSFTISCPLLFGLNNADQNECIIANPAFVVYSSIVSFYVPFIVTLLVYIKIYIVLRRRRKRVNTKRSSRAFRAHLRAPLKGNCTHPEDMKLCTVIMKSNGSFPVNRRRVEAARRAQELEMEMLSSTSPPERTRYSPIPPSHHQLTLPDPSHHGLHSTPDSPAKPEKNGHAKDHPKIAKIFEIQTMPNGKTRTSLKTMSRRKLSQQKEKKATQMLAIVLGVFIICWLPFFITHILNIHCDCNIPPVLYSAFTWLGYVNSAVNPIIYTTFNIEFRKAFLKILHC
State the value with its unit after it.

Examples from the recorded data:
[[record]]
compound = "Cc1ccc(C(O)Cn2c3c(c4cc(C)ccc42)CCN(C)C3)cc1 (stereo not drawn)"
measured = "24%"

[[record]]
compound = "CN1CCc2c(n(CCCC(=O)N3CCCCC3)c3ccc(Cl)cc23)C1"
measured = "8%"

[[record]]
compound = "CN1CCc2c(n(CC(=O)N(C)C3CCCCC3)c3ccc(Cl)cc23)C1"
measured = "0%"

[[record]]
compound = "CN1CCc2c(n(CC(O)c3ccccc3)c3ccc(Cl)cc23)C1 (stereo not drawn)"
measured = "21%"

[[record]]
compound = "C/C(=C\\n1c2c(c3cc(C)ccc31)CCN(C)C2)c1ccc(Cl)cc1"
measured = "15%"


**Q:** Quick one: inhibition at 1 µM for CCC1c2c(c3cc(C)ccc3n2/C=C(\C)c2ccc(F)c(F)c2)CCN1C (stereo not drawn) ?
**A:** -2%

**Q:** Report inhibition at 1 µM for C/C(=C\n1c2c(c3cc(Cl)ccc31)CCN(C)C2)c1ccc(F)cc1 please.
**A:** 36%

**Q:** Need inhibition at 1 µM of COc1ccc(/C(C)=C/n2c3c(c4cc(C)ccc42)CCN(C)C3)cc1F , thanks.
**A:** 21%

**Q:** Requested field: inhibition at 1 µM. Item: CC(C)CCN(C)C(=O)Cn1c2c(c3cc(Cl)ccc31)CCN(C)C2
**A:** 6%

* * *

Molecular target: human recombinant serotonin (5-Hydroxytryptamine) 5-HT2A receptor (Homo sapiens, UniProt P28223)
Construct: expressed in transfected cells; host or cells: CHO-K1 cells
Assay: Serotonin 5-HT2A radioligand binding ([3H]Ketanserin)
Details: 1 h; read-out: Percent Inhibition of ligand binding Serotonin (1 μM ligand concentration) 5-HT2A
Method: To evaluate in radioligand binding assays the activity of compounds of the invention, human recombinant serotonin (5-Hydroxytryptamine) 5-HT2A receptor expressed in Chinese hamster ovary (CHO-K1) cells (Bonhaus, D. W. et al. Br. J. Pharmacol. 115:622, 1995; Saucier, C. and Albert, P. R., J. Neurochem. 68:1998, 1997) in a 50 mM Tris-HCl buffer, pH 7.4, was used. […] Receptor proteins were filtered and washed, the filters were then counted to determine [^3H]Ketanserin specifically bound. […]
observed_property: inhibition at 1 µM (%)
Record the value in %, omitting the unit from your answer.

[[record]]
compound = "Cc1ccc2c(c1)c1c(n2CC(O)c2ccccc2)CN(C)CC1 (stereo not drawn)"
measured = 77

[[record]]
compound = "CN1CCc2c(n(CC(C)(O)c3ccc(F)cc3)c3ccc(Cl)cc23)C1 (stereo not drawn)"
measured = 88

[[record]]
compound = "CCC1c2c(c3cc(C)ccc3n2/C=C(\\C)c2ccc(F)c(F)c2)CCN1C (stereo not drawn)"
measured = 81

[[record]]
compound = "Cc1ccc2c(c1)c1c(n2C#Cc2ccc(Cl)cc2)C(C)N(C)CC1 (stereo not drawn)"
measured = 96

[[record]]
compound = "CC1c2c(c3cc(Cl)ccc3n2C#Cc2ccc(F)cc2)CCN1C (stereo not drawn)"
measured = 95

[[record]]
compound = "Cc1ccc2c(c1)c1c(n2/C=C/c2ccccc2)CN(C)CC1"
measured = 97


**Q:** # get_value(readout='inhibition at 1 µM', item= CN1CCc2c(n(CCN3CCCCC3)c3ccc(Cl)cc23)C1 )
**A:** 31

**Q:** I am curious: what inhibition at 1 µM value has been reported for CN1CCc2c(n(CC(=O)N3CCNCC3)c3ccc(Cl)cc23)C1 ?
**A:** 17

**Q:** Please report the recorded inhibition at 1 µM for CC1c2c(c3cc(Cl)ccc3n2C#Cc2ccc(Cl)cc2)CCN1C (stereo not drawn) .
**A:** 80
